Data provenance is ChEMBL document CHEMBL3988442.

Tested on: Wolbachia pipientis
procedure_summary: Anti-Wolbachia Cell-Based Screen
Type: functional
Design: scale not given: in the data most compounds retested in dose-response had high values
test_settings: 5 µM
Screen size: about 48,000 compounds; about 13,000 (27%) showed an effect of 50% or more. Some of the results follow.
quantity_name: Percent Effect (%)
Number only, in %; omit the unit.

INSERT INTO assay_data (compound, quantity_name, value_units, val) VALUES
  ('Cc1ccc(N2CCCC(N3CCC(N(C)C)CC3)C2=O)cc1 (configuration not stated)', 'Percent Effect', '%', 3.726),
  ('Cc1cc(NCCNc2ncccc2C)n2nc(C)cc2n1', 'Percent Effect', '%', 109.3),
  ('Cc1cc(NCc2cccnc2)n2nc(C)cc2n1', 'Percent Effect', '%', 12.04),
  ('CC(=O)NCCNc1cc(C)nc2cc(C)nn12', 'Percent Effect', '%', -17.81),
  ('Cc1cccc(CN2CCc3cc(C(=O)O)c(N(C)C)nc3CC2)n1.O=C(O)C(F)(F)F.O=C(O)C(F)(F)F', 'Percent Effect', '%', 105.7),
  ('Cc1nn(C)c(Oc2ccc(Cl)cc2)c1CN1CCC(CN)C1 (configuration not stated)', 'Percent Effect', '%', -7.014),
  ('Cn1cccc(NC(=O)NCCc2cccc(O)c2)c1=O', 'Percent Effect', '%', 2.871),
  ('CC(C)c1cc(NCC(O)c2ccccn2)n2nccc2n1 (configuration not stated)', 'Percent Effect', '%', 16.27),
  ('Cc1nc(CN2CCc3cc(C(=O)O)c(N(C)C)nc3CC2)cs1.O=C(O)C(F)(F)F.O=C(O)C(F)(F)F', 'Percent Effect', '%', 99.11),
  ('Cc1cc2nc(C(C)C)cc(NCCNc3ncccc3C)n2n1', 'Percent Effect', '%', 112.1);

-- ask Specify measured Percent Effect for `Cc1cccnc1NCCNc1cc(C(C)C)nc2ccnn12` .
-- reply 101.8

-- ask Indicate the recorded Percent Effect value for this compound: CC(C)c1cc(NCC(O)CO)n2nccc2n1 (configuration not stated)
-- reply 7.798

----------
Test system: Wolbachia pipientis
procedure_summary: Anti-Wolbachia Cell-Based Screen
Format: functional
Design: scale not given: in the data most compounds retested in dose-response had high values
test_settings: 5 µM
About 13,000 (27%) of roughly 48,000 compounds showed an effect of 50% or more. This is one part of the list.
Percent Effect reference
Give your result in % as a bare value.

Consider the worked cases shown below.
INSERT INTO results (compound, quantity_name, val) VALUES
  ('CCc1ccc(C(NC(=O)CCS(C)(=O)=O)C(C)(C)C)o1 (configuration not stated)', 'Percent Effect', 18.74),
  ('CC(C)COc1cncc(NCC(O)c2ccco2)n1 (configuration not stated)', 'Percent Effect', 9.809),
  ('Cc1cnn(C2CCCN(C(=O)c3cn4cccnc4n3)C2)c1 (configuration not stated)', 'Percent Effect', -8.081);

-- ask Entry `COCCN(C)CC(=O)N1C[C@@H](NC(C)=O)[C@H](c2ccc(OC)cc2)C1` needs its Percent Effect filled in; supply it.
-- reply 3.177

-- ask Read the entry Cc1nc(C)n(C2CCCN(C(=O)c3cn4c(C)cccc4n3)C2)n1 (configuration not stated) and write its reported Percent Effect.
-- reply 8.927

-- ask Quickly give me recorded Percent Effect for COCC(=O)N1CCN(C(C)C(=O)NC(C)C)CC1 (configuration not stated)
-- reply 2.538

-- ask Quote Percent Effect reported for `Cc1cccc(S(=O)(=O)N2C[C@H]3C[C@H](C(=O)NCC4CC4)[C@@H](C2)O3)c1` please.
-- reply -9.673
